// data source = ChEMBL document CHEMBL3870316

Give measured IC50 for each item. Keep answers brief.
measurementProtocol: Cytotoxicity against c-Met over-expressed human MKN45 cells assessed as cell growth inhibition after 72 hrs by MTT assay
conditionInfo: MKN-45, 72 h
# value in nM; strip the unit string

# IC50 (compound: CCn1c(C(=O)Nc2ccc(Oc3ccnc4cc(OCCCN5CCN(C)CC5)c(OC)cc34)c(F)c2)nn(-c2ccccc2OC(F)(F)F)c1=O ) is 57

# IC50 (compound: COc1cc2c(Oc3ccc(NC(=O)c4nn(-c5ccccc5)c(=O)n4C)cc3F)ccnc2cc1OCCCN1CCOCC1 ) is 950

# IC50 (compound: COc1cc2c(Oc3ccc(NC(=O)c4nn(-c5ccc(OC(F)F)cc5)c(=O)n4C)cc3F)ccnc2cc1OCCCN1CCN(C)CC1 ) is 140

# IC50 (compound: COc1cc2c(Oc3ccc(NC(=O)c4nn(-c5ccccc5)c(=O)n4C)cc3F)ccnc2cc1OCCCN1CCCCC1 ) is 460

---

measurementProtocol: Cytotoxicity against c-Met over-expressed human MKN45 cells assessed as cell growth inhibition after 72 hrs by MTT assay
conditionInfo: MKN-45, 72 h
measurementName: IC50 (nM)
# value in nM; strip the unit string

# IC50 (compound: COc1cc2c(Oc3ccc(NC(=O)c4nn(-c5ccccc5OC(F)(F)F)c(=O)n4C)cc3F)ccnc2cc1OCCCN1CCC(C)CC1 ) is 95

# IC50 (compound: COc1cc2c(Oc3ccc(NC(=O)c4nn(-c5ccccc5Cl)c(=O)n4C4CC4)cc3F)ccnc2cc1OCCCN1CCN(C)CC1 ) is 63

# IC50 (compound: COc1cc2c(Oc3ccc(NC(=O)c4nn(-c5c(C)cccc5C)c(=O)n4C)cc3F)ccnc2cc1OCCCN1CCC(C)CC1 ) is 2230

# IC50 (compound: COc1cc2c(Oc3ccc(NC(=O)c4nn(-c5ccc(OC(F)F)cc5)c(=O)n4C)cc3F)ccnc2cc1OCCCN1CCCCC1 ) is 130

---

measurementProtocol: Cytotoxicity against c-Met over-expressed human H460 cells assessed as cell growth inhibition after 72 hrs by MTT assay
conditionInfo: NCI-H460, 72 h
Give measured pIC50 for each item. Keep answers brief.
Reminder that pIC50 is minus the log10 of a molar concentration.

# pIC50 (compound: COc1cc2c(Oc3ccc(NC(=O)c4nn(-c5cccc(F)c5)c(=O)n4C)cc3F)ccnc2cc1OCCCN1CCCCC1 ) is 6.46

# pIC50 (compound: COc1cc2c(Oc3ccc(NC(=O)c4nn(-c5ccc(F)cc5)c(=O)n4C)cc3F)ccnc2cc1OCCCN1CCCCC1 ) is 6.24

# pIC50 (compound: COc1cc2c(Oc3ccc(NC(=O)c4nn(-c5ccccc5OC(F)(F)F)c(=O)n4C)cc3F)ccnc2cc1OCCCN1CCC(C)CC1 ) is 6.46

# pIC50 (compound: COc1cc2c(Oc3ccc(NC(=O)c4nn(-c5ccc(Cl)cc5Cl)c(=O)n4C)cc3F)ccnc2cc1OCCCN1CCN(C)CC1 ) is 6.62

# pIC50 (compound: COc1cc2c(Oc3ccc(NC(=O)c4nn(-c5ccccc5Cl)c(=O)n4C4CC4)cc3F)ccnc2cc1OCCCN1CCN(C)CC1 ) is 6.64

# pIC50 (compound: COc1cc2c(Oc3ccc(NC(=O)c4nn(-c5ccccc5Cl)c(=O)n4C)cc3F)ccnc2cc1OCCCN1CCN(C)CC1 ) is 6.47

# pIC50 (compound: COc1cc2c(Oc3ccc(NC(=O)c4nn(-c5ccc(F)cc5)c(=O)n4C)cc3F)ccnc2cc1OCCCN1CCC(C)CC1 ) is 6.62

# pIC50 (compound: COc1cc2c(Oc3ccc(NC(=O)c4nn(-c5ccccc5OC(F)(F)F)c(=O)n4C4CC4)cc3F)ccnc2cc1OCCCN1CCC(C)CC1 ) is 6.62

# pIC50 (compound: COc1cc2c(Oc3ccc(NC(=O)c4nn(-c5ccccc5F)c(=O)n4C)cc3F)ccnc2cc1OCCCN1CCCCC1 ) is 6.59

# pIC50 (compound: COc1cc2c(Oc3ccc(NC(=O)c4nn(-c5ccccc5OC(F)(F)F)c(=O)n4C)cc3F)ccnc2cc1OCCCN1CCN(C)CC1 ) is 6.70

# pIC50 (compound: COc1cc2c(Oc3ccc(NC(=O)c4nn(-c5cccc(F)c5)c(=O)n4C)cc3F)ccnc2cc1OCCCN1CCN(C)CC1 ) is 6.51

# pIC50 (compound: COc1cc2c(Oc3ccc(NC(=O)c4nn(-c5ccccc5Cl)c(=O)n4C4CC4)cc3F)ccnc2cc1OCCCN1CCC(C)CC1 ) is 6.80

# pIC50 (compound: COc1cc2c(Oc3ccc(NC(=O)c4nn(-c5c(C)cccc5C)c(=O)n4C)cc3F)ccnc2cc1OCCCN1CCN(C)CC1 ) is 5.62

# pIC50 (compound: COc1cc2c(Oc3ccc(NC(=O)c4nn(-c5c(C)cccc5C)c(=O)n4C)cc3F)ccnc2cc1OCCCN1CCC(C)CC1 ) is 5.49

# pIC50 (compound: COc1cc2c(Oc3ccc(NC(=O)c4nn(-c5ccc(OC(F)F)cc5)c(=O)n4C)cc3F)ccnc2cc1OCCCN1CCN(C)CC1 ) is 6.54

# pIC50 (compound: COc1cc2c(Oc3ccc(NC(=O)c4nn(-c5ccc(OC(F)F)cc5)c(=O)n4C)cc3F)ccnc2cc1OCCCN1CCCCC1 ) is 6.51

# pIC50 (compound: CCn1c(C(=O)Nc2ccc(Oc3ccnc4cc(OCCCN5CCN(C)CC5)c(OC)cc34)c(F)c2)nn(-c2ccccc2OC(F)(F)F)c1=O ) is 6.60

# pIC50 (compound: COc1cc2c(Oc3ccc(NC(=O)c4nn(-c5ccccc5)c(=O)n4C)cc3F)ccnc2cc1OCCCN1CCN(C)CC1 ) is 6.21

# pIC50 (compound: COc1cc2c(Oc3ccc(NC(=O)c4nn(-c5ccc(F)cc5)c(=O)n4C)cc3F)ccnc2cc1OCCCN1CCCC1 ) is 6.14

# pIC50 (compound: COc1cc2c(Oc3ccc(NC(=O)c4nn(-c5ccccc5)c(=O)n4C)cc3F)ccnc2cc1OCCCN1CCC(C)CC1 ) is 6.08

# pIC50 (compound: COc1cc2c(Oc3ccc(NC(=O)c4nn(-c5ccc(OC(F)F)cc5)c(=O)n4C)cc3F)ccnc2cc1OCCCN1CCC(C)CC1 ) is 6.60

# pIC50 (compound: COc1ccc(-n2nc(C(=O)Nc3ccc(Oc4ccnc5cc(OCCCN6CCN(C)CC6)c(OC)cc45)c(F)c3)n(C)c2=O)cc1 ) is 5.67

# pIC50 (compound: COc1cc2c(Oc3ccc(NC(=O)c4nn(-c5ccc(F)cc5)c(=O)n4C)cc3F)ccnc2cc1OCCCN1CCOCC1 ) is 6.09

# pIC50 (compound: COc1ccc(-n2nc(C(=O)Nc3ccc(Oc4ccnc5cc(OCCCN6CCCCC6)c(OC)cc45)c(F)c3)n(C)c2=O)cc1 ) is 5.55

# pIC50 (compound: COc1cc2c(Oc3ccc(NC(=O)c4nn(-c5ccccc5)c(=O)n4C)cc3F)ccnc2cc1OCCCN1CCCCC1 ) is 6.11

# pIC50 (compound: COc1ccc(-n2nc(C(=O)Nc3ccc(Oc4ccnc5cc(OCCCN6CCC(C)CC6)c(OC)cc45)c(F)c3)n(C)c2=O)cc1 ) is 5.62

# pIC50 (compound: COc1cc2c(Oc3ccc(NC(=O)c4nn(-c5ccccc5)c(=O)n4C)cc3F)ccnc2cc1OCCCN1CCOCC1 ) is 5.77

# pIC50 (compound: CCn1c(C(=O)Nc2ccc(Oc3ccnc4cc(OCCCN5CCCCC5)c(OC)cc34)c(F)c2)nn(-c2ccccc2OC(F)(F)F)c1=O ) is 6.60

# pIC50 (compound: CCn1c(C(=O)Nc2ccc(Oc3ccnc4cc(OCCCN5CCC(C)CC5)c(OC)cc34)c(F)c2)nn(-c2ccccc2OC(F)(F)F)c1=O ) is 6.70
